Details: in acetonitrile, 308.2 K
property: solubility (mole fraction)
Give your answer as a number; write no unit.

Fill in: solubility (mole fraction) of CC(=O)Nc1ccc(O)cc1 is ___
0.0107

###

Conditions: in water, 303.2 K
property: solubility (mole fraction)
Lab note: record just the number, no unit beside it.

Name the reported solubility (mole fraction) value associated with the compound CC(=O)Nc1ccc(O)cc1
0.00229

###

Conditions: in water, 308.2 K
property: solubility (mole fraction)
Give only the figure.

So what does the record say about solubility (mole fraction) for CC(=O)Nc1ccc(O)cc1 ?
0.00284

###

Settings: in acetonitrile, 303.2 K
property: solubility (mole fraction)
The response must contain the number and no unit.

Using the record for CC(=O)Nc1ccc(O)cc1 , report its solubility (mole fraction).
0.00935
